# reported inhibition at 1 µM; entries follow
target: hFAAH (Homo sapiens, UniProt O00519); construct: expressed in transfected cells; host or cells: HEK293-TRex (Invitrogen) stably transfected with hFAAH in the pcDNA5-Tet-off vector, or T84 human colon epithelial cells (endogenous hFAAH); used as a microsomal preparation; test: Fluorimetric assay with hFAAH microsomes (enzymatic, fluorescence based); format: biochemical; conditions: compound at 1 uM, AA-AMC substrate
Sequence (O00519 whole entry): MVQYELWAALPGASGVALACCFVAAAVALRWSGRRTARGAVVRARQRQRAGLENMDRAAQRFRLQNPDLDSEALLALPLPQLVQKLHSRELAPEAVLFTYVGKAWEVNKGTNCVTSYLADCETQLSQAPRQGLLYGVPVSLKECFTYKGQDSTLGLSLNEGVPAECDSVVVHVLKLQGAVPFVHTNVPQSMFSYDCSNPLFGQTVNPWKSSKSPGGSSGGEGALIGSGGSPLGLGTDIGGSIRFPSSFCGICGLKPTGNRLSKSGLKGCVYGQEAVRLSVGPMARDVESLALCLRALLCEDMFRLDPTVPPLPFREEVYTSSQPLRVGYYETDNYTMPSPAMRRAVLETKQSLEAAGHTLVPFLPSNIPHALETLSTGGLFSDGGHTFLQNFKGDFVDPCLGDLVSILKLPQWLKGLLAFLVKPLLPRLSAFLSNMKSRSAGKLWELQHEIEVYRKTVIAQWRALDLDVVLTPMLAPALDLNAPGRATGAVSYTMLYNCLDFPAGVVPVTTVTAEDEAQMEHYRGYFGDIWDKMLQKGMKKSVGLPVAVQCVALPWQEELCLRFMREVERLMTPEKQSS

{"compound": "Cc1csc(CN2Cc3ncnc(Nc4cnc5ccccc5c4)c3C2)n1 [Compound 77]", "measuredOn": "hFAAH (Homo sapiens, UniProt O00519)", "inhibition at 1 µM": "> 50%"}
{"compound": "c1ccc2ncc(Nc3ncnc4c3CN(Cc3nccs3)C4)cc2c1 [Compound 76]", "measuredOn": "hFAAH (Homo sapiens, UniProt O00519)", "inhibition at 1 µM": "> 25%"}

Let us examine a further case.
// fetch inhibition at 1 µM given entry O=C(NC1CCCCC1)N1Cc2ncnc(Nc3cnc4ccccc4c3)c2C1 [Compound 47]
< 25%

----------
biological target: hFAAH (Homo sapiens, UniProt O00519); construct: expressed in transfected cells; host or cells: HEK293-TRex (Invitrogen) stably transfected with hFAAH in the pcDNA5-Tet-off vector, or T84 human colon epithelial cells (endogenous hFAAH); used as a microsomal preparation; experiment: Fluorimetric assay with hFAAH microsomes (enzymatic, fluorescence based); assay type: biochemical; conditions: compound at 1 uM, AA-AMC substrate
readout: inhibition at 1 µM

{"molecule": "O=S(=O)(CCc1ccccc1)N1Cc2ncnc(Nc3cnc4ccccc4c3)c2C1 [Compound 82]", "measuredOn": "hFAAH (Homo sapiens, UniProt O00519)", "inhibition at 1 µM": "< 25%"}

Provide measured inhibition at 1 µM value, entry: O=S(=O)(C1CCCCC1)N1Cc2ncnc(Nc3cnc4ccccc4c3)c2C1 [Compound 64]
> 50%

Assign inhibition at 1 µM to the following record: CC(C)(C)CN1Cc2ncnc(Nc3cnc4ccccc4c3)c2C1 [Compound 11]
> 25%

Give the measured inhibition at 1 µM for CC(CC(C)(C)C)N1Cc2ncnc(Nc3cnc4ccccc4c3)c2C1 (centres unmarked) [Compound 39]
< 25%

Report measured inhibition at 1 µM; entry is O=C(CN1CCCC1)N1Cc2ncnc(Nc3cnc4ccccc4c3)c2C1 [Compound 54]
< 25%

Please supply the value of reported inhibition at 1 µM for the item CC(C)CN1Cc2ncnc(Nc3cnc4ccccc4c3)c2C1 [Compound 7]
> 25%

Identify measured inhibition at 1 µM associated with Cc1cnccc1CN1Cc2ncnc(Nc3cnc4ccccc4c3)c2C1 [Compound 78]
> 75%

Dear colleague, please send me the reported inhibition at 1 µM for CCCC(C)N1Cc2ncnc(Nc3cnc4ccccc4c3)c2C1 (centres unmarked) [Compound 42] when you can.
> 25%

----------
biological target: hFAAH (Homo sapiens); construct: expressed in transfected cells; host or cells: HEK293-TRex (Invitrogen) stably transfected with hFAAH in the pcDNA5-Tet-off vector, or T84 human colon epithelial cells (endogenous hFAAH); used as a microsomal preparation; test: Fluorimetric assay with hFAAH microsomes (enzymatic, fluorescence based); type: biochemical; conditions: compound at 1 uM, AA-AMC substrate
readout: inhibition at 1 µM

Example entries begin here.
{"molecule": "CCC(CC)CN1Cc2ncnc(Nc3cnc4ccccc4c3)c2C1 [Compound 14]", "measuredResult": "> 75%"}
{"molecule": "c1ccc2ncc(Nc3ncnc4c3CN(C3CCC3)C4)cc2c1 [Compound 43]", "measuredResult": "< 25%"}
{"molecule": "c1ccc2ncc(Nc3ncnc4c3CN(C3CCCCCC3)C4)cc2c1 [Compound 40]", "measuredResult": "> 25%"}
{"molecule": "O=S(=O)(c1ccccc1Cl)N1Cc2ncnc(Nc3cnc4ccccc4c3)c2C1 [Compound 72]", "measuredResult": "> 50%"}
{"molecule": "Cc1ccc(CN2Cc3ncnc(Nc4cnc5ccccc5c4)c3C2)c(C)c1 [Compound 93]", "measuredResult": "> 25%"}
{"molecule": "c1ccc2ncc(Nc3ncnc4c3CN(Cc3cccc5cc[nH]c35)C4)cc2c1 [Compound 110]", "measuredResult": "> 75%"}

Return inhibition at 1 µM (reported value) for this molecule: FC(F)(F)CN1Cc2ncnc(Nc3cnc4ccccc4c3)c2C1 [Compound 30]
< 25%

Answer with the recorded inhibition at 1 µM of c1cc(CN2Cc3ncnc(Nc4cnc5ccccc5c4)c3C2)c2c(c1)OCO2 [Compound 103] only.
> 75%

Report inhibition at 1 µM, nothing else, for this molecule: CC(C)C(C)N1Cc2ncnc(Nc3cnc4ccccc4c3)c2C1 (centres unmarked) [Compound 32]
> 25%

Identify measured inhibition at 1 µM corresponding to CCc1ccccc1CN1Cc2ncnc(Nc3cnc4ccccc4c3)c2C1 [Compound 90]
> 75%

Entry CC(C1CCCC1)N1Cc2ncnc(Nc3cnc4ccccc4c3)c2C1 (centres unmarked) [Compound 37] needs its inhibition at 1 µM filled in; supply it.
> 50%

Reference source for all entries: patent US20110257208A1
